- assay-protocol: Stability in pooled human plasma assessed as parent compound remaining at 2 uM measured after 60 mins by LC-MS/MS analysis (reference value: 100%)
- Type: ADME, cell-free
- experimental-setup: read-out: Stability
readout-name: remaining at 1 h, 2 µM

remaining at 1 h, 2 µM for CNC(=O)c1ccccc1Nc1nc(Nc2ccc(N3CCN(CCCCC(=O)Nc4cccc5c4C(=O)N(C4CCC(=O)NC4=O)C5=O)CC3)cc2OC)ncc1Cl (stereo unspecified) ?
98.3%

---

- Test system: A549
- assay-protocol: cells
- experimental-setup: Homo sapiens, A549, 72 h
pIC50: −log10 of the molar value.
Tick y if pIC50 is 6 or greater. Tick n if pIC50 is less than 6.

Hello, I need to know if CNC(=O)c1ccccc1Nc1nc(Nc2ccc(N3CCN(CCCCC(=O)NCCNc4cccc5c4C(=O)N(C4CCC(=O)NC4=O)C5=O)CC3)cc2OC)ncc1Cl (centres undefined) has measured pIC50 not below 6. Thanks!
n

Hello, I need to know if CNC(=O)c1ccccc1Nc1nc(Nc2ccc(N3CCN(CCCCCC(=O)Nc4cccc5c4C(=O)N(C4CCC(=O)NC4=O)C5=O)CC3)cc2OC)ncc1Cl (centres undefined) has measured pIC50 not below 6. Thanks!
y

Hello, I need to know if CNC(=O)c1ccccc1Nc1nc(Nc2ccc(N3CCN(CCCCCCCCNC(=O)CNc4cccc5c4C(=O)N(C4CCC(=O)NC4=O)C5=O)CC3)cc2OC)ncc1Cl (centres undefined) has measured pIC50 not below 6. Thanks!
n

Hello, I need to know if CNC(=O)c1ccccc1Nc1nc(Nc2ccc(N3CCN(CCCCCCCC(=O)NCCNc4cccc5c4C(=O)N(C4CCC(=O)NC4=O)C5=O)CC3)cc2OC)ncc1Cl (centres undefined) has measured pIC50 not below 6. Thanks!
y

Hello, I need to know if CNC(=O)c1ccccc1Nc1nc(Nc2ccc(N3CCN(CCCCC(=O)Nc4ccc5c(c4)C(=O)N(C4CCC(=O)NC4=O)C5=O)CC3)cc2OC)ncc1Cl (centres undefined) has measured pIC50 not below 6. Thanks!
n

Hello, I need to know if CNC(=O)c1ccccc1Nc1nc(Nc2ccc(N3CCN(CCCCC(=O)Nc4cccc5c4CN(C4CCC(=O)NC4=O)C5=O)CC3)cc2OC)ncc1Cl (centres undefined) has measured pIC50 not below 6. Thanks!
y

Hello, I need to know if CNC(=O)c1ccccc1Nc1nc(Nc2ccc(N3CCN(CCCCCCCCCC(=O)Nc4cccc5c4C(=O)N(C4CCC(=O)NC4=O)C5=O)CC3)cc2OC)ncc1Cl (centres undefined) has measured pIC50 not below 6. Thanks!
n
